Test system: K562
PROCEDURE TEXT: NCI tumour cell line growth inhibition, 48 h
The source made the active and inactive calls. No stated cut-off is given here; in the data, active = GI50 up to about 1.1 µM and inactive = higher.
QUANTITY MEASURED: GI50

Sample C/C(=N\O)c1ccc(Nc2nc3ccccc3c3occc23)cc1 — what was its GI50?
2190 nM (inactive)

Sample CC1(C)SCc2nc3ncccc3n21 — what was its GI50?
> 100000 nM (inactive)

Sample Clc1ccc(CCNCCNC2(c3cc4ccccc4s3)CCCCC2)cc1Cl — what was its GI50?
2310 nM (inactive)

* * *

Test system: SR
PROCEDURE TEXT: NCI tumour cell line growth inhibition, 48 h
Active and inactive are the calls of the source. No stated cut-off is given here; in the data, active = GI50 up to about 1.1 µM and inactive = higher.
Field 'call' accepts True (active), False (inactive)

What did this assay record as the result for CC(C)(C)C1=CC(=NNC(=S)NCc2ccccc2)C=C(C(C)(C)C)C1=O ?
False

What did this assay record as the result for O=C1C=CC2(O[C@H](C3CCCCC3)[C@@H](C3CCCCC3)O2)C(SC(=O)c2ccccc2)C1 (stereo partly specified) ?
True

What did this assay record as the result for COc1ccc2oc(=O)c(CC=C(C)C)c(O)c2c1C ?
False

What did this assay record as the result for CC(=O)OCC1OC(n2ccc(=O)[nH]c2=O)C(OC(C)=O)C(OC(C)=O)C1OC(C)=O (stereo unspecified) ?
False

What did this assay record as the result for Cc1c(/C=N/NC(=S)Nc2ccc([N+](=O)[O-])cc2)c(=O)n(-c2ccccc2)n1C ?
False

What did this assay record as the result for CN(C)C(=S)/N=c1\ssc(=S)n1Cc1cccnc1 ?
True

What did this assay record as the result for COc1cc2cc(C(=O)N3CC(CCl)c4ccc(O)cc43)[nH]c2c(OC)c1OC (stereo unspecified) ?
True

What did this assay record as the result for Cc1ccc(-c2nc3cc([N+](=O)[O-])ccc3[nH]2)cc1 ?
False

What did this assay record as the result for CN(CCO)Cc1ncccc1O ?
False

What did this assay record as the result for CC(=O)NNc1nc(C)c(C(/C=C/c2ccc([N+](=O)[O-])cc2)=N/N)s1 ?
False

What did this assay record as the result for O=C(NNC(=S)Nc1ccccc1)C12CC3CC(CC(C3)C1)C2 ?
True

* * *

System: MDA-MB-231
PROCEDURE TEXT: NCI tumour cell line growth inhibition, 48 h
Activity calls are given as the source filed them. Cut-off read from the data, not from the text of the source: active = GI50 up to about 1.1 µM and inactive = higher.
Field 'call' accepts active, inactive

What did this assay record as the result for c1ccc([P+](CCN2Cc3ccccc3C2)(c2ccccc2)c2ccccc2)cc1 ?
inactive

What did this assay record as the result for Cc1cccc(/C=N/NC(=S)NCCc2ccccn2)n1 ?
inactive

What did this assay record as the result for COc1ccc(-c2oc3cc(OC)c(OC)c(O)c3c(=O)c2OC)cc1 ?
inactive

What did this assay record as the result for COC1C(O)C(C)OC(OC2C(Oc3cccc4c(O)c5c(=O)oc6ccc(C)c7c(=O)oc(c34)c5c67)OC(C)C3O[C@H](c4ccccc4)OC32)C1O (stereo not given in full) ?
active

What did this assay record as the result for COC(=O)[C@@]1(NC(=O)C(CC(=O)OC(C)(C)C)NC(=O)OC(C)(C)C)C[C@H]1C (stereo not given in full) ?
inactive

What did this assay record as the result for Clc1cc(OCC23CC4CC(CC(C4)C2)C3)nc(OCC23CC4CC(CC(C4)C2)C3)n1 ?
inactive

What did this assay record as the result for COc1cc2c(c(OC)c1OC)C(=O)c1c(O)cc(C)c(OC)c1C2=O ?
inactive

What did this assay record as the result for CN(C(=O)Nc1ccc(Cl)c(Cl)c1)C1CCCC[C@@H]1N1CCCC1 (stereo not given in full) ?
inactive

What did this assay record as the result for CSc1nc(SC)c2c(C)cn(C3OC(C)C(O)C(O)C3O)c2n1 (stereo not given) ?
inactive

What did this assay record as the result for COC1C(N)C(OC2C(Oc3cccc4c(O)c5c(=O)oc6ccc(C)c7c(=O)oc(c34)c5c67)OC(C)C(O)C2(C)O)OC(C)C1O (stereo not given) ?
active

What did this assay record as the result for Clc1ccc(-c2ccc(-c3nn4c(CNc5ccccc5)nnc4s3)o2)c(Cl)c1 ?
inactive

What did this assay record as the result for O=C1N=C(S)NNC12c1ccccc1-c1ccccc12 ?
inactive

What did this assay record as the result for CNC(=O)Nc1ccccc1 ?
inactive

What did this assay record as the result for O=P1(Oc2ccccc2)N=P(c2ccccc2)(c2ccccc2)C=C(c2ccc(Cl)cc2)N1 (stereo not given) ?
inactive

What did this assay record as the result for COc1c(O)c2ccccc2c2cc(O)ccc12 ?
inactive

What did this assay record as the result for COc1cc(C(=O)OC2CC(C)=CC[C@@]3(C)CC[C@](O)(C(C)C)C23)ccc1O (stereo not given in full) ?
inactive

What did this assay record as the result for CC(=O)Nc1ccc(N2C(=O)/C(=C\c3cccc(Oc4ccccc4)c3)SC2c2ccccc2)cc1 (stereo not given) ?
inactive

What did this assay record as the result for N#Cc1ccc(Oc2nc3ccccc3nc2C(=O)O)cc1 ?
inactive

What did this assay record as the result for Clc1ccc(Nc2nc(Cl)c3nc[nH]c3n2)cc1Cl ?
inactive

What did this assay record as the result for C[C@@H]1O[C@@H](O[C@H]2CC[C@]3(C=O)[C@H]4CC[C@]5(C)[C@@H](C6=CC(=O)OC6)CC[C@]5(O)[C@@H]4CC[C@]3(O)C2)[C@H](O)[C@H](O)[C@H]1O ?
active

What did this assay record as the result for c1ccc(C(=NNc2nc3ccccc3o2)c2ccccn2)nc1 ?
active

What did this assay record as the result for CC(=O)O[C@H]1C[C@H]2[C@@H](OC(C)=O)/C=C3\C[C@](C)(C(=O)[C@H](O)C(=C1C)C2(C)C)[C@@H](O)C[C@@H]3OC(=O)[C@H](O)[C@H](c1ccccc1)N(C)C ?
inactive

What did this assay record as the result for O[C@H]1[C@H]2[C@H](O)C[C@H](CCOCc3ccccc3)CN2C[C@H]1O ?
inactive

What did this assay record as the result for OC[C@H]1C[C@@H]2Cc3ccccc3N2N1 ?
inactive

What did this assay record as the result for C=CCn1c(=O)c2ccccc2[n+]2c(-c3cccc([N+](=O)[O-])c3)csc12 ?
inactive

What did this assay record as the result for COc1ccc2oc(=O)c(CC=C(C)C)c(O)c2c1C ?
inactive

What did this assay record as the result for C/C(=N\O)c1ccc(Nc2nc3ccccc3c3occc23)cc1 ?
inactive

What did this assay record as the result for COC(=O)c1ccc(C)cc1C1CN=NC12Cc1cccc(C)c1C2=O (stereo not given) ?
inactive

What did this assay record as the result for Cn1c2ccc([N+](=O)[O-])cc2c(=O)n1Cc1ccccc1F ?
inactive

What did this assay record as the result for CC(=O)NNC1=NN(C(C)=O)C2(S1)C(=O)Nc1ccc(Br)cc12 (stereo not given) ?
inactive

* * *

Tested on: MDA-N
PROCEDURE TEXT: NCI tumour cell line growth inhibition, 48 h
Activity calls are given as the source filed them. Cut-off read from the data, not from the text of the source: active = GI50 up to about 1.1 µM and inactive = higher. Where a SMILES comes first, the peptide text is derived from it. The star is where a group is joined. CH2Cl = ClC*
Field 'call' accepts TRUE = active, FALSE = inactive

What did this assay record as the result for O=c1cc(-c2ccccc2)[nH]c2ccc(N3CCOCC3)cc12 ?
TRUE

What did this assay record as the result for CCC(CS(=O)(=O)O)[N+](=O)[O-] (stereo unspecified) ?
FALSE

What did this assay record as the result for CC(C)=CCC/C(C)=C/CO ?
FALSE

What did this assay record as the result for O=C1/C(=C/c2ccccc2)Oc2cc(O)ccc21 ?
FALSE

What did this assay record as the result for COc1cccc(OCC(=N/NC(=O)c2ccncc2)/N=C/c2ccncc2)c1 ?
FALSE

What did this assay record as the result for COC1CC(OC(=O)c2ccccc2)C(OC(=O)c2ccccc2)C(C)O1 (stereo unspecified) ?
FALSE

What did this assay record as the result for COC1C(O)C(C)OC(OC2C(Oc3cccc4c(O)c5c(=O)oc6ccc(C)c7c(=O)oc(c34)c5c67)OC(C)C3O[C@H](c4ccccc4)OC32)C1O (stereo partly specified) ?
TRUE

What did this assay record as the result for OCC12C3C4C5C3C1C5C42 (stereo unspecified) ?
FALSE

What did this assay record as the result for Clc1ccc(CCNCCNC2(c3cc4ccccc4s3)CCCCC2)cc1Cl ?
FALSE

What did this assay record as the result for Cc1cc(=O)n2c3c(c4c(cc13)c(CN(C)C)cc(=O)n4C)OC2 ?
FALSE

What did this assay record as the result for CC(=O)NC(CC(C)C)C(=O)NC(Cc1ccccc1)C(=O)CCl (stereo not drawn) (Ac-Leu-Phe-CH2Cl; configuration not given here) ?
FALSE

What did this assay record as the result for O=C1CSC(c2cc3cc(Br)ccc3nc2Cl)N1c1ccc(Cl)cc1 (stereo unspecified) ?
FALSE

What did this assay record as the result for COC(=O)c1ccccc1C1CN=NC12Cc1c(ccc(C)c1C)C2=O (stereo unspecified) ?
FALSE

What did this assay record as the result for Cc1cccc(/C=N/NC(=S)NCCc2ccccn2)n1 ?
FALSE

What did this assay record as the result for CCOC(=O)Nc1sc2c(c1C#N)CC(C)CC2 (stereo unspecified) ?
FALSE

What did this assay record as the result for CC1=C[C@H]([C@H]2C=C(C)C(C(N)=O)=CN2Cc2c(Cl)cccc2Cl)N(Cc2c(Cl)cccc2Cl)C=C1C(N)=O ?
FALSE

What did this assay record as the result for Cc1ccc(/C=C/C(=O)c2c([O-])on[n+]2-c2ccccc2)cc1 ?
FALSE

What did this assay record as the result for CCCCCC[C@H]([C@H](C)O)n1cnc2c(N)ncnc21 ?
FALSE

What did this assay record as the result for O=c1c2cc([N+](=O)[O-])ccc2[nH]n1Cc1ccccc1Cl ?
FALSE

What did this assay record as the result for Clc1ccc(Nc2nc(Cl)c3nc[nH]c3n2)cc1Cl ?
FALSE

What did this assay record as the result for Cc1ccc(-c2nc3cc([N+](=O)[O-])ccc3[nH]2)cc1 ?
FALSE

What did this assay record as the result for Cc1c(C=C(C#N)C#N)c(=O)n(C)c(=O)n1C ?
FALSE

What did this assay record as the result for CCOC(=O)Cc1nc2nn(Cc3ccccc3)cc2c(=O)[nH]1 ?
FALSE

What did this assay record as the result for COc1cc(Br)c(CC2C3=C(CCN2C(=O)C2CCC2)CC2(CC3)OCCO2)cc1O (stereo unspecified) ?
FALSE

What did this assay record as the result for C=C(Cl)C(Br)(CBr)CCC(Br)C(C)(C)Br (stereo unspecified) ?
FALSE

What did this assay record as the result for Cc1c(S(=O)(=O)O)ccc(/N=N/c2c(O)c(C(=O)O)cc3ccccc23)c1Cl ?
FALSE

What did this assay record as the result for C=CCn1c(=O)c2ccccc2[n+]2c(-c3cccc([N+](=O)[O-])c3)csc12 ?
FALSE

What did this assay record as the result for COc1ccc(/C=C2/S/C(=N\c3ccccc3)N(NC(=O)Cc3ccccc3)C2=O)cc1 ?
FALSE

What did this assay record as the result for CC(C)(Br)C(Br)CC/C(=C/CBr)CBr.CC(C)(Br)C(Br)CC/C(=C\CBr)CBr (stereo unspecified) ?
FALSE

What did this assay record as the result for CN(C)CCCc1c[nH]c2ccccc12 ?
FALSE

What did this assay record as the result for O=P1(Oc2ccccc2)N=P(c2ccccc2)(c2ccccc2)C=C(c2ccc(Cl)cc2)N1 (stereo unspecified) ?
FALSE

What did this assay record as the result for CC(CCc1ccccc1)NCC(O)n1c(/N=N/N(C)C)nc2c1c(=O)n(C)c(=O)n2C (stereo unspecified) ?
FALSE

What did this assay record as the result for NCCCNCCCCN1CC1 ?
FALSE

What did this assay record as the result for O=C1C=C(N2CCCC2)C(=O)c2c(O)ccc(O)c21 ?
FALSE

What did this assay record as the result for COc1cc(NC=C2C(=O)OC(C)(C)OC2=O)c(OC)c(C)c1OC ?
FALSE

What did this assay record as the result for COC(=O)c1ccccc1C1CN=NC12Cc1c(C)ccc(C)c1C2=O (stereo unspecified) ?
FALSE
